study system: Calmodulin-1 (Homo sapiens)
assay overview: small molecules binding Ca-loaded calmodulin-1 – biochemical, small-molecule microarray, Cy5-labelled CALM1, plus calcium, artefact control for SMM control-protein annotation, profiling panel (AID 1112);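 also: score merges spot fluorescence with signal to noise from triplicate slides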
condition notes: Cy5-CALM1 binding fluorescence, higher = more signal
Item-by-item account of composite z-score
API doc: respond with a numeric literal and nothing else, no unit.

Reference set, count: 2
C=CCNC(=O)[C@@H]1[C@H]2C(=O)O[C@H](c3ccccc3)[C@H](c3ccccc3)N2[C@H](c2ccc(O)cc2)[C@@]12C(=O)N(C(=O)OCCOC)c1ccc(C#CC3=CCCCC3)cc12    -0.0251
C=CCNC(=O)[C@@H]1[C@H]2C(=O)O[C@H](c3ccccc3)[C@H](c3ccccc3)N2[C@H](c2ccc(OCCO)cc2)[C@@]12C(=O)N(C(=O)OCCOC)c1ccc(C#Cc3ccc(OC)cc3)cc12    0.169

Attention now turns to another entry.
Please indicate composite z-score recorded for "COCCOC(=O)N1C(=O)[C@@]2(c3ccccc31)[C@H](c1ccc(O)cc1)N1[C@H](c3ccccc3)[C@H](c3ccccc3)OC(=O)[C@H]1[C@@H]2C(=O)N1CCN(c2ncccn2)CC1"
0.618

Source listed as PubChem BioAssay.
